Values were extracted from patent US11028077B2.

System: human mononuclear cells (PBMC) stimulated with staphylococcal enterotoxin B (SEB)
method.notes: cells
Format: cell-based
experimental.parameters: read-out: EC50 Cytokine Release IL-3
measured.quantity: pEC50
pEC50 here: minus log base 10 of the concentration, concentration in moles per litre.

# compound "CS(=O)(=O)c1cccc(C[C@H](NC(=O)c2c(Cl)cc3c(c2Cl)CCN(C(=O)c2ccc4ccoc4c2)C3)C(=O)O)c1" ; its pEC50 = 4.28

* * *

System: human mononuclear cells (PBMC) stimulated with staphylococcal enterotoxin B (SEB)
method.notes: cells
Assay type: cell-based
experimental.parameters: read-out: EC50 Cytokine Release IL-6
measured.quantity: pEC50
pEC50 here: minus log base 10 of the concentration, concentration in moles per litre.

# molecule "CS(=O)(=O)c1cccc(C[C@H](NC(=O)c2c(Cl)cc3c(c2Cl)CCN(C(=O)c2ccc4ccoc4c2)C3)C(=O)O)c1" ; its pEC50 = 4.36
